# System: BEAS-2B (Normal lung epithelial cell)
# assay summary: MTT cytotoxicity assay, BEAS-2B
# Format: cell-based
# condition details: Homo sapiens, 72 hrs, read-out: IC50 value after 72 hrs of treatment
readout label: pIC50
// returns pIC50 (minus log10 of molar concentration), number only

[Q] Complete the entry with pIC50 for COc1ccc2cc3[n+](cc2c1OC)CCc1cc2c(cc1-3)OCO2 [BBR, berberine]
[A] 4.61
